Values were extracted from patent US5440016A.

Catalogue of substances with associated IC50 (μg/ml) against P. aeruginosa
# Tested on: P. aeruginosa ATCC 27853
# assay-notes: Antimicrobial assay, P. aeruginosa
# experimental-setup: Tables 22-23

- substance: "Ac-RRWWCS-NH2 [Ac-RRWWCS-NH2]"
  IC50 (μg/ml) against P. aeruginosa: "290 µg/mL"
- substance: "Ac-RRWWCP-NH2 [Ac-RRWWCP-NH2]"
  IC50 (μg/ml) against P. aeruginosa: "200 µg/mL"
- substance: "Ac-RRWWCM-NH2 [Ac-RRWWCM-NH2]"
  IC50 (μg/ml) against P. aeruginosa: "93 to 103 µg/mL"
- substance: "Ac-RRWWCH-NH2 [Ac-RRWWCH-NH2]"
  IC50 (μg/ml) against P. aeruginosa: "59 to 65 µg/mL"
- substance: "Ac-RRWWCG-NH2 [Ac-RRWWCG-NH2]"
  IC50 (μg/ml) against P. aeruginosa: "200 µg/mL"

Lookup: I would be grateful if you could share the reported IC50 (μg/ml) against P. aeruginosa for Ac-RRWWCA-NH2 [Ac-RRWWCA-NH2] .
Found: 97 to 98 µg/mL

Lookup: Requested field: IC50 (μg/ml) against P. aeruginosa. Item: Ac-RRWWCT-NH2 [Ac-RRWWCT-NH2]
Found: 180 µg/mL

Lookup: Dear colleague, I am looking for the recorded IC50 (μg/ml) against P. aeruginosa of the following substance: Ac-RRWWCF-NH2 [Ac-RRWWCF-NH2]
Found: 42 to 45 µg/mL
